target_desc: human cathepsin L (Homo sapiens)
Construct: purchased R&D Systems
Sequence (P07711 114-333): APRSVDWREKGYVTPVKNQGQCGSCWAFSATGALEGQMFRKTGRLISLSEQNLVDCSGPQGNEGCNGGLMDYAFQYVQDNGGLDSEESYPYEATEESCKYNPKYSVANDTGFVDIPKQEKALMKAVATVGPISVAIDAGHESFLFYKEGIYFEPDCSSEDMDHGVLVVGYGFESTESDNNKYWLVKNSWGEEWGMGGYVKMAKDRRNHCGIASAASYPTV
measurement_protocol: cathepsin L assay
Type: biochemical
condition_info: 10 pM human cathepsin L, Z-FR-AMC 2 μM, class symbols
pIC50: −log10 of the molar value.
Please provide measured pIC50 for the entries that follow.

Problem: # pIC50 lookup, item COc1ccnc2[nH]c(C(=O)N3C[C@@H]4CCC[C@@H]4[C@H]3C(=O)N[C@@H](C[C@@H]3CCNC3=O)C(=O)CO)cc12
Result: ≤ 5.00

Problem: # pIC50 lookup, item C=C[C@@H]1C[C@@H](C(=O)N[C@@H](C[C@@H]2CCNC2=O)C(=O)C(=O)NCc2ccccc2)N(C(=O)c2cc3ccccc3[nH]2)C1
Result: > 7.00

Problem: # pIC50 lookup, item COc1cccc2[nH]c(C(=O)N3CC4(CC4)C[C@H]3C(=O)N[C@@H](C[C@@H]3CCCNC3=O)C(=O)CO)cc12
Result: ≤ 5.00

Problem: # pIC50 lookup, item O=C(NCCOC1CCCC1)C(=O)[C@H](C[C@@H]1CCNC1=O)NC(=O)[C@@H]1[C@H]2CCC[C@H]2CN1C(=O)c1cc2c(Cl)cc(Cl)cc2[nH]1
Result: 5.00 to 6.00

Problem: # pIC50 lookup, item O=C1NCC[C@H]1C[C@H](NC(=O)[C@@H]1[C@H]2CCC[C@H]2CN1C(=O)c1cc2c(Cl)cccc2[nH]1)C(=O)COCc1ccccc1 [Compound 60A]
Result: ≤ 5.00

Problem: # pIC50 lookup, item CS(=O)(=O)c1cccc2[nH]c(C(=O)N3C[C@@H]4CCC[C@@H]4[C@H]3C(=O)N[C@@H](C[C@@H]3CCNC3=O)C(=O)CO)cc12
Result: ≤ 5.00

Problem: # pIC50 lookup, item O=C1NCC[C@H]1C[C@H](NC(=O)[C@@H]1[C@@H]2[C@H](CN1C(=O)c1cc3c(Cl)cc(Cl)cc3[nH]1)[C@@H]1C=C[C@H]2C1)C(=O)CO
Result: ≤ 5.00

Problem: # pIC50 lookup, item O=C1NCC[C@H]1C[C@H](NC(=O)[C@@H]1[C@H]2CCC[C@H]2CN1C(=O)c1cc2c(Cl)cc(Cl)c(F)c2[nH]1)C(=O)CO
Result: ≤ 5.00

Problem: # pIC50 lookup, item O=C1NCC[C@H]1C[C@H](NC(=O)[C@@H]1[C@H]2CCC[C@H]2CN1C(=O)c1cc2c(Cl)ccc(OCc3ccccc3)c2[nH]1)C(=O)CO
Result: ≤ 5.00

Problem: # pIC50 lookup, item O=C(NCc1ccccc1)C(=O)[C@H](C[C@@H]1CCNC1=O)NC(=O)[C@@H]1C[C@]2(CN1C(=O)c1cc3ccccc3[nH]1)CC2(F)F
Result: 6.00 to 7.00

Problem: # pIC50 lookup, item CC1(C)C[C@@H](C(=O)NC(C[C@@H]2CCNC2=O)C(=O)C(=O)NCc2ccccc2)N(C(=O)c2cc3ccccc3[nH]2)C1 (stereo partly drawn)
Result: > 7.00

Problem: # pIC50 lookup, item O=C(NCc1ccccc1)C(=O)[C@H](Cc1cccnc1)NC(=O)[C@@H]1CC2(CC2)CN1C(=O)c1cc2ccccc2[nH]1
Result: > 7.00

---

Tested on: human beta-coronavirus OC43
measurement_protocol: microbe, parasite or virus in culture
Type: cell-based
condition_info: Betacoronavirus 1, OC43, HeLa, 144 h, OC43 in HeLa cells, 6 days at 33° C., class symbols; read-out: EC50
experimental_readout: EC50

Problem: # EC50 lookup, item O=C(NCc1ccccc1)C(=O)[C@H](C[C@@H]1CCNC1=O)NC(=O)[C@@H]1[C@H]2CCC[C@H]2CN1C(=O)c1nc2ccccc2[nH]1
Result: 1000 to 10000 nM

Problem: # EC50 lookup, item COc1cccc2[nH]c(C(=O)N3C[C@@H]4CCC[C@@H]4[C@H]3C(=O)N[C@@H](C[C@@H]3CCNC3=O)C(=O)C(=O)NCCOc3ccccc3)cc12
Result: 100 to 1000 nM

Problem: # EC50 lookup, item O=C(NC1CC1)C(=O)[C@H](C[C@@H]1CCNC1=O)NC(=O)[C@@H]1[C@H]2CCC[C@H]2CN1C(=O)c1cc2c(Cl)cc(Cl)cc2[nH]1
Result: 100 to 1000 nM

Problem: # EC50 lookup, item COCC(=O)[C@H](C[C@@H]1CCNC1=O)NC(=O)[C@@H]1[C@H]2CCC[C@H]2CN1C(=O)c1cc2c(OC)cccc2[nH]1
Result: 100 to 1000 nM
